Listed next: entries and their corresponding self-cleavage.
B1: LINE1-full (parent)
chain: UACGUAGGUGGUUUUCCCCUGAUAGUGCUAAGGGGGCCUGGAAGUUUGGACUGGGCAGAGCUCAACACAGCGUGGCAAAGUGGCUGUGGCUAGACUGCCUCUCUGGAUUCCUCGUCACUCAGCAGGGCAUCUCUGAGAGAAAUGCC

# Variants of: B1
# assay-explanation: self-cleavage, relative activity (ratio to wild type); higher = more cleavage; in vitro, sequencing; the parent is a self-cleaving ribozyme
// return a plain number; no unit text

Reference set, count: 3
| mutant-code | self-cleavage |
| --- | --- |
| G34A U96C | 0.05 |
| U26A U73C | 1.15 |
| A22U A129U | 1.47 |

What value of self-cleavage has been reported for the following variant? U14C A92U 0.89

All figures here come from the RNAGym collection of RNA variant scans (doi:10.7554/elife.90254).
